- System: B cell
- experimentalProtocol: Cytotoxicity screening of chemical probes in isolated B cell assay. Data is normalized to DMSO control, the cell viability average of replicates are reported. Reduction of ATP level more than 20% indicate compromised cell health status.
- conditionSummary: human, 1 µM
reportedProperty: Cell Viability
Numeric answer plus unit only.

Some solved cases for reference:
molecule	result
C[C@@H](OC[C@@]1(c2ccccc2)CC[C@]2(CCC(=O)N2)CN1)c1cc(C(F)(F)F)cc(C(F)(F)F)c1 [ROLAPITANT]	98.0011%
CC(C)C[C@H](CO)Nc1nc(S[C@@H](C)c2ccccc2)nc2nc(N)sc12 [AZD-8797]	97.9584%
COc1cccc2c1c(NS(=O)(=O)c1ccc(Cl)s1)nn2Cc1cccc(CNC(=O)C(C)(C)O)c1	103.681%

Now consider the entry below.
Please list Cell Viability recorded for the molecule `CSc1ccc(C(=O)N[C@@H]2CCCC[C@@H]2NC(=O)CNC(=O)c2cc(C(F)(F)F)ccc2NC(=O)NC(C)C)cc1`
102.032%
